# System: NCI-H460 lung
# Assay: NCI tumour cell line growth inhibition, 48 h
Please go through the items and note down their TGI.

Requested read-out: TGI. Entry: `Cc1cc(O)c2c(c1)C(=O)c1c(c(O)cc(O)c1-c1c(O)cc(O)c3c1C(=O)c1cc(C)cc(O)c1C3=O)C2=O`
55.3 µM

Requested read-out: TGI. Entry: `N#C/C(=C\c1c(O)cc(O)cc1O)C(N)=O`
> 100 µM

Requested read-out: TGI. Entry: CC(C)c1oc(=O)cc2c1C(O)C1OC(=O)C3(C)C(O)C4OC4C2(C)C13 (stereo not drawn)
9.73 µM

Requested read-out: TGI. Entry: `CCCCC(=O)N(c1ccc(Nc2c3ccccc3nc3cc([N+](=O)[O-])ccc23)cc1)S(C)(=O)=O`
12.8 µM

Requested read-out: TGI. Entry: `C=C1N(S(=O)(=O)c2ccc(C)cc2)C(=O)OCC12CCCC2`
> 100 µM

Requested read-out: TGI. Entry: `CCN(CC)CCNC(=O)c1cccc2c1-c1ccccc1C2=O`
> 100 µM

Requested read-out: TGI. Entry: `O=C(O)CCC(c1ccccc1)(c1ccccc1)c1ccccc1`
> 91.2 µM

Requested read-out: TGI. Entry: `CCc1nc(C)cn1C(=O)OCc1nc2nc(Cl)nc(N3CCOCC3)c2[nH]1`
3.76 µM

Requested read-out: TGI. Entry: `O=S1(=O)c2ccccc2N(c2ccccc2)c2nnnn21`
> 100 µM

Requested read-out: TGI. Entry: `O=C=C=P(c1ccccc1)(c1ccccc1)c1ccccc1`
> 100 µM

Requested read-out: TGI. Entry: `NCCCNc1nc2ccccc2c2c(=O)c3cc(F)ccc3sc12`
3.22 µM

Requested read-out: TGI. Entry: `O=C(NC1CC1)c1c(O)[nH]c(=S)[nH]c1=O`
> 100 µM

Requested read-out: TGI. Entry: `N=c1oc2ccccc2cc1C(=O)Nc1cccc2ccccc12`
> 100 µM

* * *

# Tested on: SNB-19 CNS
# Assay: NCI tumour cell line growth inhibition, 48 h
Parameter: GI50

Query GI50 on SNB-19 CNS for `Nc1[nH]nc2nc(-c3cc(Cl)ccc3Cl)cc(-c3ccc(F)cc3)c12`
35700 nM

Query GI50 on SNB-19 CNS for `COc1cccc(Nc2ncnc3cc(NC(=O)CCl)ccc23)c1`
1500 nM

Query GI50 on SNB-19 CNS for `O=C1/C(=C\c2ccc(F)cc2)CN(C(=O)c2ccccc2F)C/C1=C\c1ccc(F)cc1`
1580 nM

* * *

Please go through the items and note down their TGI.
# Test system: SK-MEL-5 melanoma
# Assay: NCI tumour cell line growth inhibition, 48 h
Where a SMILES comes first, the peptide text is derived from it. [ ]: non-standard residue; d: D form. ΔPro = O=C(O)[CH]1C=CCN1

Requested read-out: TGI. Entry: `CC(C)(C)OC(=O)N(O)[C@@H]1CC[C@H](n2cnc3c(N)ncnc32)C1`
> 100 µM

Requested read-out: TGI. Entry: `COc1ccc2c(c1)C(=Nc1ccc(F)c(Cl)c1)c1c-2c(Nc2ccc(F)c(Cl)c2)nc2ccccc12`
> 100 µM

Requested read-out: TGI. Entry: `CCN(CC)C(=O)CCn1cc(F)c(=O)[nH]c1=O`
> 100 µM

Requested read-out: TGI. Entry: `C[P+]1(Cc2ccccc2)CCCC1`
> 100 µM

Requested read-out: TGI. Entry: `NS(=O)(=O)c1nnc(NS(=O)(=O)c2ccccc2[N+](=O)[O-])s1`
> 100 µM

Requested read-out: TGI. Entry: `C/C(=N\NC(=O)c1ccncc1)c1sc(-n2nc(-c3ccccc3)cc2-c2ccccc2)nc1C`
> 31.6 µM

Requested read-out: TGI. Entry: c1ccc(C2=NOC3C4CCC(C4)C23)cc1 (configuration not stated)
> 100 µM

Requested read-out: TGI. Entry: `CCCCC(=O)/C=c1/cc(C)[nH]c2cccc3cnn1c32`
> 100 µM

Requested read-out: TGI. Entry: `Cc1ccccc1NC(=O)Cc1nc2ccccc2s1`
> 100 µM

Requested read-out: TGI. Entry: `O=Cc1cn(CCCCCCCCn2cc(C=O)c3ccccc32)c2ccccc12`
> 10 µM

Requested read-out: TGI. Entry: O=C(O)C1C=CCN1C(=O)C1C=CCN1C(=O)C1C=CCN1 (configuration not stated) (H-[ΔPro]-[ΔPro]-[ΔPro]-OH; configuration not given here)
> 100 µM

Requested read-out: TGI. Entry: O=c1[nH]c2c(c(=O)[nH]1)SC(c1ccccc1)C2 (configuration not stated)
> 100 µM

Requested read-out: TGI. Entry: `Cc1ccc(Nc2cccc3c2C(=O)c2cccc(Nc4ccc(C)cc4S(=O)(=O)O)c2C3=O)c(S(=O)(=O)O)c1`
> 100 µM

Requested read-out: TGI. Entry: `C#C[C@@]1(O)[C@@H](CO)O[C@@H](n2cc(Br)c3c(Cl)ccnc32)[C@@H]1O`
> 100 µM

Requested read-out: TGI. Entry: COc1ccc(-c2sc(Br)c3c2C(=O)C2OC(=O)NC32)cc1OC (configuration not stated)
> 100 µM

Requested read-out: TGI. Entry: C=C(C)C1CC[C@@](C)(O)[C@H](C#N)C1 (some centres not stated)
> 100 µM

Requested read-out: TGI. Entry: `COc1ccc(Oc2nc3cc(N)cc(N)c3nc2-c2ccccc2)cc1`
> 100 µM

Requested read-out: TGI. Entry: `Cn1c(CCCC(=O)O)nc2cc(N(CCCl)CCCl)ccc21`
> 100 µM

Requested read-out: TGI. Entry: `Cn1c(=O)c2ccccc2[n+]2c(-c3cccc([N+](=O)[O-])c3)csc12`
> 100 µM

Requested read-out: TGI. Entry: `c1ccc(-c2[nH]ncc2-c2ccnc(-c3ccc(OCCN4CCOCC4)cc3)c2)nc1`
> 25 µM

Requested read-out: TGI. Entry: `NS(=O)(=O)c1ccc(N=Nc2ccc[nH]c2=O)cc1`
> 100 µM

Requested read-out: TGI. Entry: CC(=O)OC1CCC2OOC1O2 (configuration not stated)
> 100 µM

Requested read-out: TGI. Entry: `CCc1n[nH]c(=O)n1CC`
> 100 µM

Requested read-out: TGI. Entry: `O=C(Nc1nc(-c2ccc(Cl)cc2)cs1)c1cc(O)c(O)c(O)c1`
881 µM

Requested read-out: TGI. Entry: CC(=O)OCC1OC(n2cccnc2=O)C(OC(C)=O)C1OC(C)=O (configuration not stated)
> 100 µM

Requested read-out: TGI. Entry: `Cc1cc(O)c2c(c1)C(=O)c1c(c(O)cc(O)c1-c1c(O)cc(O)c3c1C(=O)c1cc(C)cc(O)c1C3=O)C2=O`
30.6 µM

Requested read-out: TGI. Entry: `Cc1ccc(/C=N/NC(=O)c2ccccc2Oc2ccccc2)o1`
33.3 µM

* * *

# Tested on: UO-31 renal
# Assay: NCI tumour cell line growth inhibition, 48 h
Parameter: GI50

Requested read-out: GI50. Entry: `NC(=O)c1c(NC(=O)c2cccs2)sc2c1CCC(=O)C2`
1.58 µM

Requested read-out: GI50. Entry: `Cn1c(CCCC(=O)O)nc2cc(N(CCCl)CCCl)ccc21`
> 100 µM

Requested read-out: GI50. Entry: `Cc1ccc(/C=N/NC(=O)c2ccccc2Oc2ccccc2)o1`
44.8 µM

Requested read-out: GI50. Entry: `O=C(/C=C/c1ccccc1)c1cccc2ccccc12`
2.68 µM

Requested read-out: GI50. Entry: `COc1cccc2c1C(=O)c1c(O)c3c(c(O)c1C2=O)C[C@@](O)(/C(CO)=N/NC(=O)CCCCCN1C(=O)C=CC1=O)C[C@@H]3O[C@H]1C[C@H](N)[C@H](O)[C@H](C)O1`
3.47 µM

* * *

Please go through the items and note down their TGI.
# System: MOLT-4 leukemia
# Assay: NCI tumour cell line growth inhibition, 48 h
Where a SMILES comes first, the peptide text is derived from it. [ ]: non-standard residue; d: D form. ΔPro = O=C(O)[CH]1C=CCN1

Requested read-out: TGI. Entry: Cc1cc(C)c(NS(=O)c2cccc(C(F)(F)F)c2)c(C)c1 (centres undefined)
> 100 µM

Requested read-out: TGI. Entry: O=C(OCc1ccccc1)C(Cc1ccc(OCc2ccccc2)cn1)NC(=O)C(F)(F)F (centres undefined)
> 100 µM

Requested read-out: TGI. Entry: `C/C(O)=C(\C=N\C(=S)N=Nc1c(O)[nH]c2ccccc12)C(=O)Nc1ccccc1C`
> 100 µM

Requested read-out: TGI. Entry: O=C(O)C1C=CCN1C(=O)C1C=CCN1C(=O)C1C=CCN1 (centres undefined) (H-[ΔPro]-[ΔPro]-[ΔPro]-OH; configuration not given here)
> 100 µM

Requested read-out: TGI. Entry: `c1ccc(C2=NN2c2ccccc2)cc1`
> 100 µM

Requested read-out: TGI. Entry: CC1(C)c2ccccc2N2C(c3ccccc3)=NOC21C (centres undefined)
> 100 µM

Requested read-out: TGI. Entry: Cc1ccc(Sc2ccccc2C23OC(C)(C4C(=O)N(c5ccccc5)C(=O)C42)N(C)C3=O)cc1 (centres undefined)
> 100 µM

Requested read-out: TGI. Entry: S=C1NC2=C(CSC/C2=C\c2ccc(Cl)cc2)C(c2ccc(Cl)cc2)N1 (centres undefined)
> 100 µM

Requested read-out: TGI. Entry: COC(=O)C1(C(=O)OC)N=C(C)OC1c1ccccc1O (centres undefined)
> 100 µM
